From: patent US10253007B2

assay: Caco-2 cell monolayer membrane transport assay; details: human, Caco-2, Recovery rate in mass, Sample-01, Caco-2; A-B; Sample-01

- compound: "COC(=O)O[C@H]1C(=O)[C@]2(C)[C@@H](OC)C[C@H]3OC[C@@]3(OC(C)=O)[C@H]2[C@H](OC(=O)c2ccccc2)[C@]2(O)C[C@H](OC(=O)[C@H](O)[C@@H](NC(=O)c3ccccc3)c3ccccc3)C(C)=C1C2(C)C [PCMI-27]"
  recovery: "99.3%"
- compound: "COC(=O)O[C@H]1C(=O)[C@]2(C)[C@@H](OC)C[C@H]3OC[C@@]3(OC(C)=O)[C@H]2[C@H](OC(=O)c2ccccc2)[C@]2(O)C[C@H](OC(=O)[C@H](O)[C@@H](NC(=O)N(C)C)c3ccccc3)C(C)=C1C2(C)C [PCMI-29]"
  recovery: "102%"
- compound: "CO[C@H]1C(=O)[C@]2(C)[C@@H](OC(=O)N(C)C)C[C@H]3OC[C@@]3(OC(C)=O)[C@H]2[C@H](OC(=O)c2ccccc2)[C@]2(O)C[C@H](OC(=O)[C@H](O)[C@@H](NC(=O)OC(C)(C)C)c3ccccn3)C(C)=C1C2(C)C [PCMI-33]"
  recovery: "95.8%"
